# Test system: Staphylococcus epidermidis
# TEST_DESCRIPTION: Antimicrobial assay in 96-well plates, LB medium (Example 2), MIC
# Assay type: cell-based
# EXPERIMENTAL_CONTEXT: Table VI, methionine sulfoxide diastereomer fractions, 20 hours
Square brackets hold non-standard residues; d marks the D form. Ends that are not written are not given here. Met(O) = CS(=O)CC[C@H](N)C(=O)O
QUANTITY_KIND: Min. Inhibitory Concentration S. epidemidia (µg/mL)
Numbers only; they are read as µg/mL.

[ask] Entry 11 (SEQ ID NO: 15) 70/30: residue 11 methionine sulfoxide analogue, fraction by proportion of L-methionine-L-/D-sulfoxide (assignment undetermined) (LKLLKKLLKK[Met(O)]KKLLKKL; also: sulfoxide L-/D- 70/30 mixture, assignment undetermined) : reported Min. Inhibitory Concentration S. epidemidia = ?
[reply] 2

[ask] Data request, read-out Min. Inhibitory Concentration S. epidemidia, for 11 (SEQ ID NO: 15) 20/80: residue 11 methionine sulfoxide analogue, fraction by proportion of L-methionine-L-/D-sulfoxide (assignment undetermined) (LKLLKKLLKK[Met(O)]KKLLKKL; also: sulfoxide L-/D- 20/80 mixture, assignment undetermined)
[reply] 2.5

[ask] Recorded Min. Inhibitory Concentration S. epidemidia for 4 (SEQ ID NO: 8) 60/40: residue 4 methionine sulfoxide analogue, fraction by proportion of L-methionine-L-/D-sulfoxide (assignment undetermined) (LKL[Met(O)]KKLLKKLKKLLKKL; also: sulfoxide L-/D- 60/40 mixture, assignment undetermined) , please?
[reply] 5

[ask] Report Min. Inhibitory Concentration S. epidemidia for 4 (SEQ ID NO: 8) 50/50: residue 4 methionine sulfoxide analogue, fraction by proportion of L-methionine-L-/D-sulfoxide (assignment undetermined) (LKL[Met(O)]KKLLKKLKKLLKKL; also: sulfoxide L-/D- 50/50 mixture, assignment undetermined) please.
[reply] 5

----------
Consider the following substances; for each one, report its Minimum Inhibitory Concentration S. epidermidis.
# Tested on: Staphylococcus epidermidis
# TEST_DESCRIPTION: Antimicrobial assay for deletion analogues (Example 10), MIC
# Type: cell-based
# EXPERIMENTAL_CONTEXT: Table VII; 3.0×10^5 CFU/ml, 20 hours, LB medium
Dear colleague, please return just the value in µg/mL, with no unit written.

[ask] Fill blank: measured Minimum Inhibitory Concentration S. epidermidis of the substance Ac-LKLLKKLLKKLKLLKKL-NH2 [12 (X(SEQ ID NO: 53) --NH2)] is ____.
[reply] 4

[ask] Minimum Inhibitory Concentration S. epidermidis lookup needed for Ac-LKLKKLLKKLKKLLKKL-NH2 [3 (X(SEQ ID NO: 48) --NH2)] , thanks.
[reply] 4

[ask] Recorded Minimum Inhibitory Concentration S. epidermidis for Ac-LLLKKLLKKLKKLLKKL-NH2 [2 (X(SEQ ID NO: 47) --NH2)] , please?
[reply] 4

[ask] // Minimum Inhibitory Concentration S. epidermidis lookup, key: Ac-LKLLKKLLKKLKKLLKKL-NH2 [None (parent)]
[reply] 2.5

[ask] May I ask what Minimum Inhibitory Concentration S. epidermidis has been recorded for Ac-LKLLKKLLKKKKLLKKL-NH2 [11 (X(SEQ ID NO: 52) --NH2)] ?
[reply] 2

----------
Can you tell me Minimum Inhibitory Concentration P. Aeruginosa for the items I'm about to list?
# System: Pseudomonas aeruginosa
# TEST_DESCRIPTION: Antimicrobial assay for deletion analogues (Example 10), MIC
# Assay type: cell-based
# EXPERIMENTAL_CONTEXT: Table VII; 3.5×10^5 CFU/ml, 20 hours, LB medium

[ask] Request - read-out Minimum Inhibitory Concentration P. Aeruginosa | tested on Pseudomonas aeruginosa | substance Ac-LKLLKKLKKLKKLLKKL-NH2 [7 (X(SEQ ID NO: 50) --NH2)]
[reply] 4 to 8 µg/mL

[ask] Notebook: pull reported Minimum Inhibitory Concentration P. Aeruginosa for Pseudomonas aeruginosa, entry Ac-LLLKKLLKKLKKLLKKL-NH2 [2 (X(SEQ ID NO: 47) --NH2)]
[reply] 16 to 32 µg/mL

[ask] Which measured Minimum Inhibitory Concentration P. Aeruginosa belongs to Ac-KLLKKLLKKLKKLLKKL-NH2 [1 (X(SEQ ID NO: 46) --NH2)] , tested on Pseudomonas aeruginosa?
[reply] 16 to 32 µg/mL
